B1: Pyrin (Homo sapiens), O15553 (parent)
chain: MAKTPSDHLLSTLEELVPYDFEKFKFKLQNTSVQKEHSRIPRSQIQRARPVKMATLLVTYYGEEYAVQLTLQVLRAINQRLLAEELHRAAIQEYSTQENGTDDSAASSSLGENKPRSLKTPDHPEGNEGNGPRPYGGGAASLRCSQPEAGRGLSRKPLSKRREKASEGLDAQGKPRTRSPALPGGRSPGPCRALEGGQAEVRLRRNASSAGRLQGLAGGAPGQKECRPFEVYLPSGKMRPRSLEVTISTGEKAPANPEILLTLEEKTAANLDSATEPRARPTPDGGASADLKEGPGNPEHSVTGRPPDTAASPRCHAQEGDPVDGTCVRDSCSFPEAVSGHPQASGSRSPGCPRCQDSHERKSPGSLSPQPLPQCKRHLKQVQLLFCEDHDEPICLICSLSQEHQGHRVRPIEEVALEHKKKIQKQLEHLKKLRKSGEEQRSYGEEKAVSFLKQTEALKQRVQRKLEQVYYFLEQQEHFFVASLEDVGQMVGQIRKAYDTRVSQDIALLDALIGELEAKECQSEWELLQDIGDILHRAKTVPVPEKWTTPQEIKQKIQLLHQKSEFVEKSTKYFSETLRSEMEMFNVPELIGAQAHAVNVILDAETAYPNLIFSDDLKSVRLGNKWERLPDGPQRFDSCIIVLGSPSFLSGRRYWEVEVGDKTAWILGACKTSISRKGNMTLSPENGYWVVIMMKENEYQASSVPPTRLLIKEPPKRVGIFVDYRVGSISFYNVTARSHIYTFASCSFSGPLQPIFSPGTRDGGKNTAPLTICPVGGQGPD

- Variants of: B1
- assay_conditions: with asc_human PYCARD
readout_type: effect of a mutation on the interaction

>>> print(df.to_string())
   mutant                             readout_type  observed_measurement
0    A89T  effect of a mutation on the interaction        with no effect
1    Q29A  effect of a mutation on the interaction        with no effect
